test-system: human androgen receptor (Homo sapiens, UniProt P10275)
Construct: expressed in transfected cells; host or cells: HEK293
Sequence (P10275 whole entry): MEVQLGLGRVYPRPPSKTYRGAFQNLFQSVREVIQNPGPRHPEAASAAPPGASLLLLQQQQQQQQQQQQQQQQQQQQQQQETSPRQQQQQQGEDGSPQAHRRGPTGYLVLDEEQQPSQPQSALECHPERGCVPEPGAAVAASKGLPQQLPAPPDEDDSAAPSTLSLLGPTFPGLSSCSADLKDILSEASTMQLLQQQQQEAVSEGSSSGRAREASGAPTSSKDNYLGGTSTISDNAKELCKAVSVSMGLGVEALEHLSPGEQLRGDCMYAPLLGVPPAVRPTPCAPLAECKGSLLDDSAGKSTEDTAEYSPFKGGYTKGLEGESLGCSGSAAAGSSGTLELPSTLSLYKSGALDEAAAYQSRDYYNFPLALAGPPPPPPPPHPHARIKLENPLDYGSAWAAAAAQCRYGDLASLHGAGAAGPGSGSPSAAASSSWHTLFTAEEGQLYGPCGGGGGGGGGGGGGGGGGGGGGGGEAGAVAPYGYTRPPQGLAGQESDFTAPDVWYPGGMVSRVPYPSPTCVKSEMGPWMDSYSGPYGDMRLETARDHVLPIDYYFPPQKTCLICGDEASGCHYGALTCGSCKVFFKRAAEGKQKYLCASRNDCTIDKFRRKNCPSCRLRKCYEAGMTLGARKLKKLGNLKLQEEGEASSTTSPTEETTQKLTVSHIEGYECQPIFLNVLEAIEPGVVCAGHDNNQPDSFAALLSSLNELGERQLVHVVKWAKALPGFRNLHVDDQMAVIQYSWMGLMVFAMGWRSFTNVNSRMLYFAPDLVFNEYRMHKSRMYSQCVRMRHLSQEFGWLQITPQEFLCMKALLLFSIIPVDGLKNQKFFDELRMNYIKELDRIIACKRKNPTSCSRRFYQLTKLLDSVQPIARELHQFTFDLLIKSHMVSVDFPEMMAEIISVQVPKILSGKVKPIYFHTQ
protocol: Reporter assay of an androgen receptor responsive sequence (luciferase, transiently transfected HEK293 cells)
Assay type: cell-based
stated-conditions: 24 hours incubation, relative to activity of 100 nM DHT, read-out: AR transcriptive activity (pEC50) (converted)
Description: Reporter Assay of an Androgen Receptor Responsive Sequence To examine the agonist activity of compounds for androgen, a reporter assay using an androgen receptor responsive sequence was conducted. Using Lipofectamine 2000 (Invitrogen), a plasmid mixture (pGL4-ARE (200 ng/well), pcDNA3-hAR (20 ng/well), pRL-TK (Promega) (150 ng/well)) was transiently transfected into HEK293 cells. The contents of the plasmid (mixture) are as follows: […]
Listed below: log10 of EC50 values for each entry.
All values: base-10 log of EC50 in nM.

molecule=Cc1sc(N(Cc2ccccc2)c2ccc(C#N)c(F)c2)nc1C(=O)NS(C)(=O)=O recorded_value=2.40
molecule=Cc1sc(N(Cc2ccc(C#N)cc2)c2ccc(C#N)cc2)nc1C(=O)NS(C)(=O)=O recorded_value=3.00
molecule=Cc1sc(N(CCc2ccc(Cl)cc2)Cc2cccc(OC(F)(F)F)c2)nc1C(=O)NS(C)(=O)=O recorded_value=2.50
molecule=CS(=O)(=O)NC(=O)c1nc(N(Cc2ccc(C(F)(F)F)cc2)c2ccc(C#N)cc2)sc1Br recorded_value=1.40

Noted for Cc1sc(N(CC[C@@H]2CCCC[C@H]2O)c2ccc(C#N)cc2)nc1C(=O)NS(C)(=O)=O (racemic) : its log10 of EC50 reads 2.50

Noted for Cc1sc(N(CCC2CCCCO2)c2ccc(C#N)cc2)nc1C(=O)NS(C)(=O)=O (stereo not drawn) : its log10 of EC50 reads 2.70

Noted for `Cc1sc(N(CC2Cc3ccccc3C2)c2ccc(C#N)cc2)nc1C(=O)NS(C)(=O)=O` : its log10 of EC50 reads 2.40

Noted for Cc1sc(N(CCC2CCCC(O)C2)c2ccc(C#N)cc2)nc1C(=O)NS(C)(=O)=O (stereo not drawn) : its log10 of EC50 reads 3.10
